Source: patent US20160264649A1

I'd be grateful if you could share measured IC50 (neutralization) for these entries.
# study target: HIV-1 Env of isolate 92UG046 (subtype D) (HIV-1)
# assay summary: cell-based or functional assay

Quick one: IC50 (neutralization) of PGT-135 (antibody, V domains shown) VH: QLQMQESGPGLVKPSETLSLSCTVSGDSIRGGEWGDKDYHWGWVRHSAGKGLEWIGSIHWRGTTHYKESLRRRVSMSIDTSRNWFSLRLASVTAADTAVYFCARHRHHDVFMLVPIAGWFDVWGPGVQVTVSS VL: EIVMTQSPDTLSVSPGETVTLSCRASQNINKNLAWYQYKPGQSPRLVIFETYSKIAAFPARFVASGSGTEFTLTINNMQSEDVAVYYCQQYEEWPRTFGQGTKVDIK ?
> 50 µg/mL

Also PGT-125 (antibody, V domains shown) VH: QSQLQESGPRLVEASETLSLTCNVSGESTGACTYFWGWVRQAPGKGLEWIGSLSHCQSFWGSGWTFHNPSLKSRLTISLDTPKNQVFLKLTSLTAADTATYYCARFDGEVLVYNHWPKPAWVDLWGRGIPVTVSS VL: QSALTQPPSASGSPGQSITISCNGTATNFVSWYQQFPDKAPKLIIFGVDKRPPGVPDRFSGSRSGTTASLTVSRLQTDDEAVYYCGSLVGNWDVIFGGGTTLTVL , if possible.
> 50 µg/mL

Also PGT-128 (antibody, V domains shown) VH: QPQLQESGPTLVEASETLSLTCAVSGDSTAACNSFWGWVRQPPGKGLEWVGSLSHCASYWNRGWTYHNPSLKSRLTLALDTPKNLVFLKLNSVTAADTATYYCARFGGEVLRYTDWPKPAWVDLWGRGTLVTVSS VL: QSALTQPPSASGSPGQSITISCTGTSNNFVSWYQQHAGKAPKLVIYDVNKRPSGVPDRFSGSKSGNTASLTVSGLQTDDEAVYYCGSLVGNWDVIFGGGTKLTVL , if possible.
> 50 µg/mL
